- tested-on: Serine/threonine-protein kinase Sgk1 (Homo sapiens) (UniProt O00141)
- Sequence (O00141 whole entry): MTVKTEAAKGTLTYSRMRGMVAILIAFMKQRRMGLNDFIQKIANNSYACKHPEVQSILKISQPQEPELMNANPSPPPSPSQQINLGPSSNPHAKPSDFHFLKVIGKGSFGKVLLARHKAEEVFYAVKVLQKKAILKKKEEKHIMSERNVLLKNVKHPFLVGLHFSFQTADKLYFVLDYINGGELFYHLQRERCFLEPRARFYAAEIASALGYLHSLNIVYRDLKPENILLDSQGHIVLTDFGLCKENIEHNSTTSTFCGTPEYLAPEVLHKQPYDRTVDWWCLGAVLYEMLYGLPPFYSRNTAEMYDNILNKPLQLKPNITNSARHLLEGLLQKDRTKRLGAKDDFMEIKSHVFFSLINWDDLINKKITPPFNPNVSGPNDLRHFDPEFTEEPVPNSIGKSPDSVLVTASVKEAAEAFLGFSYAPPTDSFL
- stated-conditions: at 1 µM
recorded-endpoint: inhibition (%)

[
  {
    "item-smiles": "CCC(=O)Nc1ccc(C)c(-c2ccc(C(=O)NCC3CC3)cc2)c1",
    "tested-on": "Serine/threonine-protein kinase Sgk1 (Homo sapiens) (UniProt O00141)",
    "recorded-result": 2.02
  },
  {
    "item-smiles": "NS(=O)(=O)c1ccc(N/N=C2\\C(=O)Nc3ccc(C(=O)NCCCn4ccnc4)cc32)cc1",
    "tested-on": "Serine/threonine-protein kinase Sgk1 (Homo sapiens) (UniProt O00141)",
    "recorded-result": 14.6
  },
  {
    "item-smiles": "Cc1ccc(NC(=O)c2ccoc2)cc1-c1ccc(C(=O)NCC2CC2)cc1",
    "tested-on": "Serine/threonine-protein kinase Sgk1 (Homo sapiens) (UniProt O00141)",
    "recorded-result": 0.73
  },
  {
    "item-smiles": "Fc1ccc(-c2c(-c3ccncc3)nc3n2CCS3)cc1",
    "tested-on": "Serine/threonine-protein kinase Sgk1 (Homo sapiens) (UniProt O00141)",
    "recorded-result": 4.05
  },
  {
    "item-smiles": "O=C(Nc1n[nH]c2cc(-c3ccccc3)ccc12)C1CC1",
    "tested-on": "Serine/threonine-protein kinase Sgk1 (Homo sapiens) (UniProt O00141)",
    "recorded-result": 5.38
  },
  {
    "item-smiles": "O=C(NCC1CC1)c1ccc(-c2cccc(C(=O)NC3CC3)c2)cc1",
    "tested-on": "Serine/threonine-protein kinase Sgk1 (Homo sapiens) (UniProt O00141)",
    "recorded-result": 0.82
  },
  {
    "item-smiles": "CN1CCN(CCCNc2nc3ccc(Oc4ccc(NC(=O)Nc5cc(C(F)(F)F)ccc5F)cc4)cc3[nH]2)CC1",
    "tested-on": "Serine/threonine-protein kinase Sgk1 (Homo sapiens) (UniProt O00141)",
    "recorded-result": 5.49
  },
  {
    "item-smiles": "c1ccc(Oc2ccc(Nc3ncc(-c4ccccc4)o3)cc2)cc1",
    "tested-on": "Serine/threonine-protein kinase Sgk1 (Homo sapiens) (UniProt O00141)",
    "recorded-result": 2.9
  },
  {
    "item-smiles": "c1ccc(-c2n[nH]cc2-c2ccnc(-c3ccc(OCCN4CCOCC4)cc3)c2)nc1",
    "tested-on": "Serine/threonine-protein kinase Sgk1 (Homo sapiens) (UniProt O00141)",
    "recorded-result": 3.03
  },
  {
    "item-smiles": "COc1cc(Nc2ncc3c(C)nc(-c4cccc(Oc5ccccc5)c4)n3n2)cc(OC)c1OC",
    "tested-on": "Serine/threonine-protein kinase Sgk1 (Homo sapiens) (UniProt O00141)",
    "recorded-result": -0.71
  },
  {
    "item-smiles": "CN(c1ccc(NC(=O)Nc2c(Cl)cccc2Cl)cc1)c1ccnc(Nc2cccc(CS(C)(=O)=O)c2)n1",
    "tested-on": "Serine/threonine-protein kinase Sgk1 (Homo sapiens) (UniProt O00141)",
    "recorded-result": 7.64
  },
  {
    "item-smiles": "CCN(CC)Cc1ccc(Nc2nccc(-c3cnn4ncccc34)n2)cc1",
    "tested-on": "Serine/threonine-protein kinase Sgk1 (Homo sapiens) (UniProt O00141)",
    "recorded-result": 7.61
  },
  {
    "item-smiles": "O=C1Nc2ccc(I)cc2C1=Cc1cc(Br)c(O)c(Br)c1",
    "tested-on": "Serine/threonine-protein kinase Sgk1 (Homo sapiens) (UniProt O00141)",
    "recorded-result": 2.04
  },
  {
    "item-smiles": "O=C(Nc1ccc(Oc2ccc3[nH]c(NC(=O)c4ccccc4)nc3c2)cc1)Nc1cc(C(F)(F)F)ccc1F",
    "tested-on": "Serine/threonine-protein kinase Sgk1 (Homo sapiens) (UniProt O00141)",
    "recorded-result": 3.96
  },
  {
    "item-smiles": "C/C(Nc1ccc(S(N)(=O)=O)cc1)=C1/C(=O)Nc2ccccc21",
    "tested-on": "Serine/threonine-protein kinase Sgk1 (Homo sapiens) (UniProt O00141)",
    "recorded-result": 18.4
  },
  {
    "item-smiles": "COc1ccc2cc(-c3c(-c4ccncc4)nc(-c4ccc(S(C)(=O)=O)cc4C)n3C)ccc2c1",
    "tested-on": "Serine/threonine-protein kinase Sgk1 (Homo sapiens) (UniProt O00141)",
    "recorded-result": 4.51
  },
  {
    "item-smiles": "Cc1ccc(C(=O)NC(C)C)cc1-c1ccc(C(=O)NCC2CC2)cc1",
    "tested-on": "Serine/threonine-protein kinase Sgk1 (Homo sapiens) (UniProt O00141)",
    "recorded-result": -0.09
  },
  {
    "item-smiles": "C#Cc1cccc(Nc2ncnc3ccc(OCCCCNCCS(C)(=O)=O)cc23)c1",
    "tested-on": "Serine/threonine-protein kinase Sgk1 (Homo sapiens) (UniProt O00141)",
    "recorded-result": 5.99
  },
  {
    "item-smiles": "CCc1nccc2c1nc(-c1nonc1N)n2CC",
    "tested-on": "Serine/threonine-protein kinase Sgk1 (Homo sapiens) (UniProt O00141)",
    "recorded-result": 3.23
  },
  {
    "item-smiles": "CN(C)CCCNc1nccc(-c2c(-c3ccc(F)cc3)nn3cc(C(F)(F)F)ccc23)n1",
    "tested-on": "Serine/threonine-protein kinase Sgk1 (Homo sapiens) (UniProt O00141)",
    "recorded-result": 2.09
  }
]

* * *

Item-by-item account of inhibition
- tested-on: PAS domain-containing serine/threonine-protein kinase (Homo sapiens)
- stated-conditions: at 0.1 µM
- Description: GSK_PKIS: PASK mean inhibition at 0.1 uM [Nanosyn]

[
  {
    "item-smiles": "Fc1ccc(-c2ncn(CCCN3CCOCC3)c2-c2ccncc2)cc1",
    "inhibition": "0.57%"
  },
  {
    "item-smiles": "Clc1ccc(CNc2nccc(-c3cnn4ncccc34)n2)cc1",
    "inhibition": "0.92%"
  },
  {
    "item-smiles": "c1ccc(-c2n[nH]cc2-c2ccnc(-c3ccc(OCCN4CCOCC4)cc3)c2)nc1",
    "inhibition": "4.29%"
  },
  {
    "item-smiles": "CCc1ccc(Oc2nccc(-c3c(-c4ccc(F)cc4)ncn3C3CCNCC3)n2)cc1",
    "inhibition": "-0.7%"
  },
  {
    "item-smiles": "N#Cc1ccc(Oc2nccc(-c3c(-c4ccc(F)cc4)ncn3C3CCNCC3)n2)cc1",
    "inhibition": "-0.29%"
  },
  {
    "item-smiles": "Cc1ccc(NC(=O)c2ccoc2)cc1-c1ccc(C(=O)NCC2CC2)cc1",
    "inhibition": "1.03%"
  },
  {
    "item-smiles": "NC(=O)c1cc(-c2ccc(F)cc2)cc(-c2ccncc2)c1N",
    "inhibition": "-1.01%"
  },
  {
    "item-smiles": "C[C@@H](Oc1cc(-n2cnc3ccc(OC4CCN(C)CC4)cc32)sc1C(N)=O)c1ccccc1Cl",
    "inhibition": "-0.56%"
  },
  {
    "item-smiles": "Cc1ccc(C(=O)NC2CCC2)cc1-c1ccc(C(=O)NCC2CC2)cc1",
    "inhibition": "0.3%"
  },
  {
    "item-smiles": "CCc1nccc2c1nc(-c1nonc1N)n2CC",
    "inhibition": "0.71%"
  },
  {
    "item-smiles": "CN(C)CCOc1ccc(-c2cc(-c3ccc4c(c3)CCC4=NO)c(-c3ccncc3)o2)cc1",
    "inhibition": "1.53%"
  },
  {
    "item-smiles": "NC(=O)c1cc(-c2ccncc2)cc(-c2ccccc2)c1N",
    "inhibition": "0.12%"
  },
  {
    "item-smiles": "COC(=O)Nc1nc2ccc(Sc3ccc(NC(=O)Nc4cc(C(F)(F)F)ccc4F)cc3)cc2[nH]1",
    "inhibition": "1.15%"
  },
  {
    "item-smiles": "O=C(Nc1n[nH]c2cc(-c3ccccc3)ccc12)C1CC1",
    "inhibition": "0.21%"
  },
  {
    "item-smiles": "CS(=O)(=O)CCNCc1cc(-c2cc3c(Nc4ccc(OCc5cccc(F)c5)c(Cl)c4)ncnc3s2)cs1",
    "inhibition": "-1.66%"
  },
  {
    "item-smiles": "C/C(Nc1ccc(S(N)(=O)=O)cc1)=C1/C(=O)Nc2ccccc21",
    "inhibition": "-1.08%"
  },
  {
    "item-smiles": "Fc1ccc(-c2c(-c3ccncc3)nc3n2CCS3)cc1",
    "inhibition": "-0.68%"
  },
  {
    "item-smiles": "C#Cc1cccc(Nc2ncnc3ccc(OCCCCNCCS(C)(=O)=O)cc23)c1",
    "inhibition": "0.02%"
  }
]
